Where do these numbers come from? They come from patent US20160251438A1.

target: T1, recombinant soluble human GARP-TGFβ1 complex (human, UniProt Q14392 20-628; P01137 30-390); assay: SPR (Biacore), hGARP-TGFβ1 immobilised
T1 construct: co-expressed in HEK293E, purified by the Strep-Tag; TGFβ consists of LAP and mature TGFβ; also called shGARP-TGFβ; rhGARP-TGFβ
T1 sequence (Q14392 other isoform, or with tags, fused parts or gaps limits assumed, chain 1 of 2): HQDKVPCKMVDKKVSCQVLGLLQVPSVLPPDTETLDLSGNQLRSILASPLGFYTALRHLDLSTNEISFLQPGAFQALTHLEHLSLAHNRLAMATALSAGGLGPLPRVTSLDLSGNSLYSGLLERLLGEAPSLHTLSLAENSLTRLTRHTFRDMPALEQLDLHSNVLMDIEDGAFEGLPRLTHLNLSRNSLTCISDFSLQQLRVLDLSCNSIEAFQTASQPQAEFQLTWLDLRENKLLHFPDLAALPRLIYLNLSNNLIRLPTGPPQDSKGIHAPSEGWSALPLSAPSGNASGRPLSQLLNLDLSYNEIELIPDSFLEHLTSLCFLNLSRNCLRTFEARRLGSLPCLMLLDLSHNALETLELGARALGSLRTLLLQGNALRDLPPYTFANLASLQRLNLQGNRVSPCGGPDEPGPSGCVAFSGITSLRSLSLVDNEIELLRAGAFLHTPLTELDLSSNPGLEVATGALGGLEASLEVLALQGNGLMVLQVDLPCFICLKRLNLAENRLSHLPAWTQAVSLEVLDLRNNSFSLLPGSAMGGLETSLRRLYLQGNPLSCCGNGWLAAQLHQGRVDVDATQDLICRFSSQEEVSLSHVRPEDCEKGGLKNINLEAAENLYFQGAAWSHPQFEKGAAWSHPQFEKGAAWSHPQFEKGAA
T1 sequence (P01137 30-390 limits assumed, chain 2 of 2): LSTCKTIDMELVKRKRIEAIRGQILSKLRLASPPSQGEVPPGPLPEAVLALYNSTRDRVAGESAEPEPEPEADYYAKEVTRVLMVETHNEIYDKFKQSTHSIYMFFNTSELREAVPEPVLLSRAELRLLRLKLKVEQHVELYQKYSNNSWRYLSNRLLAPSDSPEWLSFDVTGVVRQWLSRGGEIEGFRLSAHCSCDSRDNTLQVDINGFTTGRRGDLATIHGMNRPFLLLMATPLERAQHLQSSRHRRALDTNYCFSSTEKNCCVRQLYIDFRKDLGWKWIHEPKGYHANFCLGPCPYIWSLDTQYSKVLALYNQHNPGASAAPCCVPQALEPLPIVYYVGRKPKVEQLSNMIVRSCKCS
Parameter: fold improvement of kd (reference LHG-10-D). Scope: all listed entries.
Reply with just the number (in fold).

[
  {
    "binder": "LHG-10.3-D (antibody, human IgG1, V domains shown) VH: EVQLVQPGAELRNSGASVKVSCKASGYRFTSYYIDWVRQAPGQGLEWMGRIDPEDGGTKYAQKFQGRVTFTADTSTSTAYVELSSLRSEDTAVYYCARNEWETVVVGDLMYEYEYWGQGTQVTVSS VL: DIQMTQSPSSLSASLGDRVTITCQASQSIVSYLAWYQQKPGQAPKLLIYGASRLQTGVPSRFSGSGSGTSFTLTISGLEAEDAGTYYCQQYASAPVTFGQGTGVELK",
    "assay_value": 5.1
  }
]

Task: # fold improvement of kd (reference LHG-10-D) lookup, item LHG-10.6-D (antibody, human IgG1, V domains shown, also called LHG-10.6N297Q) VH: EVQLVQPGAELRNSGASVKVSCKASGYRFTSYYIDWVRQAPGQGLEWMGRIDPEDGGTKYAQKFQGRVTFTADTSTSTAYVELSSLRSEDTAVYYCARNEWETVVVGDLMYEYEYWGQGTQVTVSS VL: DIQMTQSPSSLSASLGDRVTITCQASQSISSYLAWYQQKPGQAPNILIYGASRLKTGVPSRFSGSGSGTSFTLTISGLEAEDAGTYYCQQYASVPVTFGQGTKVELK
Output: 4.3

Task: Given LHG-10.4-D (antibody, human IgG1, V domains shown) VH: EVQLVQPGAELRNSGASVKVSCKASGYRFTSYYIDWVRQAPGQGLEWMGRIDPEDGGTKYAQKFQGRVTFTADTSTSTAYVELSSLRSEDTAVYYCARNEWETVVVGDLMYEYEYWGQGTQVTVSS VL: DIQMTQSPSSLSASLGDRVTITCQASQSISSYLAWYQQKPGQAPKLLIYGTSRLKTGVPSRFSGSGSGTSFTLTISGLEAEDAGTYYCQQYYSAPVTFGQGTKVELK , state its recorded fold improvement of kd (reference LHG-10-D).
Output: 2.2
